- experimental_system: cathepsin B (Homo sapiens, UniProt P07858)
- Construct: purchased Calbiochem 219364
- assay_name: Inhibition of cathepsin B
- Type: biochemical
- measurement_parameters: Table III; 1 uM; read-out: Cat B % I @ 1 uM
Square brackets hold non-standard residues; d marks the D form. Peptide text beside a SMILES is read from it. * marks the point of attachment. Bn = c1ccc(C*)cc1; Ms = CS(=O)(=O)*
recorded_metric: inhibition at 1 µM (%)
Please give a number only; it is taken to be in %.

CS(=O)(=O)N[C@H](Cc1ccc(OCc2ccccc2)cc1)C(=O)N[C@H](C=O)Cc1ccccc1 [Compound 89] (Ms-[dY](Bn)-Phe-aldehyde); 100
CS(=O)(=O)N[C@H](COCc1ccccc1)C(=O)N[C@@H](Cc1ccccc1)C1OCCS1 (some centres unmarked); 21
CS(=O)(=O)N[C@H](COCc1ccccc1)C(=O)N[C@@H](Cc1ccccc1)C1N(c2ccccc2)CCN1c1ccccc1; 78

According to the records, this compound "O=C[C@H](Cc1ccccc1)NC(=O)[C@@H](COCc1ccccc1)NS(=O)(=O)c1ccc(F)cc1" displays inhibition at 1 µM of 100

According to the records, this compound CS(=O)(=O)N[C@H](Cc1c[nH]c2ccccc12)C(=O)N[C@H](C=O)Cc1ccccc1 [Compound 77] (Ms-[dW]-Phe-aldehyde) displays inhibition at 1 µM of 90

According to the records, this compound "O=C[C@H](Cc1ccccc1)NC(=O)[C@H]1CCCN1S(=O)(=O)Cc1ccccc1" displays inhibition at 1 µM of 69

According to the records, this compound "Cc1ccc(S(=O)(=O)O[C@@H]2C[C@H](C(=O)N[C@H](C=O)Cc3ccccc3)N(S(=O)(=O)c3ccc(C)cc3)C2)cc1" displays inhibition at 1 µM of 83

According to the records, this compound "O=C[C@H](Cc1ccccc1)NC(=O)[C@@H](Cc1c[nH]c2ccccc12)NS(=O)(=O)c1ccccc1" displays inhibition at 1 µM of 100

According to the records, this compound "CS(=O)(=O)N[C@H](COCc1ccccc1)C(=O)N[C@H](C=O)CCCCNC(=O)OCc1ccccc1" displays inhibition at 1 µM of 100

According to the records, this compound "CN([C@H](COCc1ccccc1)C(=O)N[C@H](C=O)Cc1ccccc1)S(C)(=O)=O" displays inhibition at 1 µM of 62

According to the records, this compound "CS(=O)(=O)N[C@H](COCc1ccccc1)C(=O)N[C@@H](Cc1ccccc1)C(=O)CCc1ccccc1" displays inhibition at 1 µM of 47
